- Tested on: NCI-H460
- measurement-protocol: Antiproliferative activity against human H460 cells measured after 72 hrs by MTT assay
- Format: functional, cell-based
- reported-conditions: NCI-H460, 72 h
pIC50: −log10 of the molar value.
measured-attribute: pIC50

INSERT INTO assay_data (compound, inequality_operator, test_value) VALUES
  ('COc1cc(NC(C)CCCNC(=O)CCC(=O)NCCCC(C)Nc2cc(OC)cc3cccnc23)c2ncccc2c1 (stereo not given)', '=', 4.73),
  ('COc1cc(NC(C)CCCN)c2ncccc2c1 (stereo not given) [PRIMAQUINE PHOSPHATE]', '=', 4.70),
  ('COc1cc(NC(C)CCCNC(=O)CCCCCCC(=O)NCCCC(C)Nc2cc(OC)cc3cccnc23)c2ncccc2c1 (stereo not given)', '≤', 4.00),
  ('COc1cc(NC(C)CCCNC(=O)CCCC(=O)NCCCC(C)Nc2cc(OC)cc3cccnc23)c2ncccc2c1 (stereo not given)', '=', 4.99),
  ('COc1cc(NC(C)CCCNC(=O)/C=C\C(=O)NCCCC(C)Nc2cc(OC)cc3cccnc23)c2ncccc2c1 (stereo not given)', '=', 4.85),
  ('COc1cc(NC(C)CCCNC(=O)/C=C(\C)C(=O)NCCCC(C)Nc2cc(OC)cc3cccnc23)c2ncccc2c1 (stereo not given)', '=', 5.79),
  ('COc1cccc2c1C(=O)c1c(O)c3c(c(O)c1C2=O)C[C@@](O)(C(=O)CO)C[C@@H]3O[C@H]1C[C@H](N)[C@H](O)[C@H](C)O1', '=', 8.52),
  ('COc1cc(NC(C)CCCNC(=O)/C=C/C(=O)NCCCC(C)Nc2cc(OC)cc3cccnc23)c2ncccc2c1 (stereo not given)', '≤', 4.00),
  ('COc1cc(NC(C)CCCNC(=O)CCCCCC(=O)NCCCC(C)Nc2cc(OC)cc3cccnc23)c2ncccc2c1 (stereo not given)', '=', 4.57),
  ('COc1cc(NC(C)CCCNC(=O)CCCCC(=O)NCCCC(C)Nc2cc(OC)cc3cccnc23)c2ncccc2c1 (stereo not given)', '=', 5.60);

* * *

- measurement-protocol: Selectivity index, ratio of IC50 for HEK293 cells to IC50 for human HCT116 cells
- Assay type: toxicity
- reported-conditions: HEK293 cells versus HCT116 cells, read-out: Ratio IC50
Collected selectivity ratio values appear next to each entry.
measured-attribute: selectivity ratio

INSERT INTO results (compound, test_value) VALUES
  ('COc1cc(NC(C)CCCNC(=O)/C=C\C(=O)NCCCC(C)Nc2cc(OC)cc3cccnc23)c2ncccc2c1 (centres undefined)', '1.6 to 31'),
  ('COc1cc(NC(C)CCCNC(=O)CCCCCC(=O)NCCCC(C)Nc2cc(OC)cc3cccnc23)c2ncccc2c1 (centres undefined)', '1.6 to 31'),
  ('COc1cc(NC(C)CCCNC(=O)CCCCC(=O)NCCCC(C)Nc2cc(OC)cc3cccnc23)c2ncccc2c1 (centres undefined)', '7.3 to 56'),
  ('COc1cc(NC(C)CCCNC(=O)CCCC(=O)NCCCC(C)Nc2cc(OC)cc3cccnc23)c2ncccc2c1 (centres undefined)', '1.6 to 31');

* * *

- measurement-protocol: Selectivity index, ratio of IC50 for HEK293 cells to IC50 for human H460 cells
- Format: toxicity
- reported-conditions: HEK293 cells versus H460 cells, read-out: Ratio IC50
measured-attribute: selectivity ratio

INSERT INTO assay_data (compound, measured_attribute, test_value) VALUES
  ('COc1cc(NC(C)CCCNC(=O)CCCCC(=O)NCCCC(C)Nc2cc(OC)cc3cccnc23)c2ncccc2c1 (centres undefined)', 'selectivity ratio', '7.3 to 56'),
  ('COc1cc(NC(C)CCCNC(=O)CCCC(=O)NCCCC(C)Nc2cc(OC)cc3cccnc23)c2ncccc2c1 (centres undefined)', 'selectivity ratio', '1.6 to 31'),
  ('COc1cc(NC(C)CCCNC(=O)CCCCCC(=O)NCCCC(C)Nc2cc(OC)cc3cccnc23)c2ncccc2c1 (centres undefined)', 'selectivity ratio', '1.6 to 31'),
  ('COc1cc(NC(C)CCCNC(=O)/C=C\C(=O)NCCCC(C)Nc2cc(OC)cc3cccnc23)c2ncccc2c1 (centres undefined)', 'selectivity ratio', '1.6 to 31');
